Where do the numbers come from? From patent US20250388623A1.

This section presents binders with their documented IC50 values.
Target: TSP-1 protein (novoprotein, Catalog No. CU45), P07996
Sequence (P07996 19-1170 limits assumed): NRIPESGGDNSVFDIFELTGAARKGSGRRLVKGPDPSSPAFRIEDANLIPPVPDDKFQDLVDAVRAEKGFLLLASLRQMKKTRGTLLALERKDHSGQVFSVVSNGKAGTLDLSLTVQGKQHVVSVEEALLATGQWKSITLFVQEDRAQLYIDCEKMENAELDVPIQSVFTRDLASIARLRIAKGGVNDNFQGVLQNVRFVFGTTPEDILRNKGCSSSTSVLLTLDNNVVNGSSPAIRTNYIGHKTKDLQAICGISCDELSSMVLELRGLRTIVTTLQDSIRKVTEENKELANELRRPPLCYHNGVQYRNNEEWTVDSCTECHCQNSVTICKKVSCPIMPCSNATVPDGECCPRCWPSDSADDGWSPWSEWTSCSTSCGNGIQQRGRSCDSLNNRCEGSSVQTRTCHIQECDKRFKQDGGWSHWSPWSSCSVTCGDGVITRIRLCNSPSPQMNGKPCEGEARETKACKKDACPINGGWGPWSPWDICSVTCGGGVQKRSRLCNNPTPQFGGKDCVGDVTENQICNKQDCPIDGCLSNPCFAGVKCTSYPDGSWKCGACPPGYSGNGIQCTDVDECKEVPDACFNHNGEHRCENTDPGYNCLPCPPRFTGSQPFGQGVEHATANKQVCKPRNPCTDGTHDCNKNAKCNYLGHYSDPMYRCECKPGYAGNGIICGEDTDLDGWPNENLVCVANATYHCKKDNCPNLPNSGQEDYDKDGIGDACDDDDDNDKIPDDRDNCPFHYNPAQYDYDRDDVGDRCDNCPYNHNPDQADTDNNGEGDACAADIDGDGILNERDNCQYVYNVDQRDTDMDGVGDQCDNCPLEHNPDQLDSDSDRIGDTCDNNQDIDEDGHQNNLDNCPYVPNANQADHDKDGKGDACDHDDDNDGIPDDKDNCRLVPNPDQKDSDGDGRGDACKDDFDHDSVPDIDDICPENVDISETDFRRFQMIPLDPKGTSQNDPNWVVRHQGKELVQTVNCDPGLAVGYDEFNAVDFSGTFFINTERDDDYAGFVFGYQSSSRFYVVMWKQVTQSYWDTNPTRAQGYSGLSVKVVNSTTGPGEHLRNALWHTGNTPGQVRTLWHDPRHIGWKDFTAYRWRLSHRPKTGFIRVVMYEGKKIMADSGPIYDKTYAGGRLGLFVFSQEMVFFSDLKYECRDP
Assay: competition ELISA, TSP-1 coated, CD36-Fc as competitor, peptide 0-100 µM

TCDAEDNC (modifications not checked) [SEQ ID NO: 43]
3.62 µM

For this binder ( TCDAEDNC (modifications not checked) [SEQ ID NO: 44] ), measured IC50 is 6.71 µM
